Cited source for all entries: PubChem BioAssay

protocolNotes: CREB reporter modulators under forskolin, primary screen, cell-based, PC12, CRE-LacZ reporter, forskolin-stimulated (AID 1146);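 further: PC12 cells with 6xCRE LacZ reporter stimulated by forskolin 10 µM; beta-galactosidase reporter signal reflecting CREB driven transcription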
testConditions: luminescence, 4.5 h, higher = more signal, called active from +8 up or from −8 down
// reported z-score per item
I only need the number, thanks.

Below: 3 molecules and their reported z-score.
{"molecule": "C#CCCCON=C1C[C@@H](O)[C@@H](O)[C@@H]2[C@@H]3C(=O)N(C[C@@H]4CCCO4)C(=O)[C@@H]3CC[C@H]12", "z-score": 0.593}
{"molecule": "CCOC(=O)[C@H](Cc1ccccc1)NC(=O)CCC1CC(OC(=O)NCc2cccc3ccccc23)CC2(CCCC(COC(=O)NCCc3ccccc3OC)O2)O1 (some centres undefined)", "z-score": -0.745}
{"molecule": "C#CCCCON=C1C[C@@H](O)[C@@H](O)[C@@H]2[C@@H]3C(=O)N(C[C@@H]4CCCO4)C(=O)[C@@H]3CC[C@@H]12", "z-score": 0.305}

Now take the following molecule into account.
Noted for O=C1[C@H]2[C@H]3[C@H](O)[C@H](O)CC(=NOC[C@@H](O)COCc4ccco4)[C@@H]3CC[C@H]2C(=O)N1Cc1ccc2c(c1)OCO2 : its z-score reads 0.506

----------
protocolNotes: basal S. cerevisiae growth modulation, no modifier, primary screen, OD600, strain BY4716, 24 h, basal condition (AID 1173)
testConditions: OD600, 24 h, higher = more signal, called active from +8 up or from −8 down
Criterion: z-score meeting or surpassing -0.05. Met: Criterion met. Not met: Criterion not met.

{"compound": "CC(=O)OC[C@H]1O[C@H](CC=NOC[C@@H](O)[C@H]2O[C@@H]3OC(C)(C)O[C@@H]3[C@H]2O)C=C[C@@H]1OC(C)=O", "labelValue": "Criterion met"}
{"compound": "CC(C)=NOC[C@@H](O)[C@H]1O[C@@H]2OC(C)(C)O[C@@H]2[C@H]1O", "labelValue": "Criterion not met"}
{"compound": "CCOC(=O)[C@H](CC(C)C)NC(=O)CCC1CC(OC(=O)NCc2ccc3c(c2)OCO3)CC2(CCCC(COC(=O)NCc3ccccc3)O2)O1 (stereo not given in full)", "labelValue": "Criterion met"}
{"compound": "CO[C@H]1COC(=O)CCC[C@H](C)[C@@H](OC)COC(=O)CC=C[C@@H]1C", "labelValue": "Criterion not met"}
{"compound": "CCOC(=O)CCN1C(=O)[C@H]2[C@H]3[C@H](O)[C@H](O)CC(=NNC(=O)OCc4ccc(OC)cc4)[C@H]3CC[C@H]2C1=O", "labelValue": "Criterion not met"}

Query: Threshold query (z-score >= -0.05) on CC(C)=CCCC(C)=CCON=C1C[C@@H](O)[C@@H](O)[C@@H]2[C@@H]3C(=O)N(C4CCCCC4)C(=O)[C@@H]3CC[C@H]12
Reply: Criterion not met

Query: Does z-score meet or surpass -0.05 for O=C1C2=CC[C@H]3C(=O)N(c4ccc(F)cc4F)C(=O)[C@H]3[C@H]2[C@H](O)[C@@H]2O[C@H]12 ?
Reply: Criterion not met

Query: Reported z-score reaches at least -0.05 for CC(CCN1CCc2nc(-c3ccccc3)c(-c3ccccc3)cc2C1)=NO[C@@H](C)c1cc(-c2c(C)cc(C)cc2C)no1 ?
Reply: Criterion not met

----------
testSystem: Follistatin-related protein 3 (Homo sapiens) (UniProt O95633)
Sequence (O95633 whole entry, looked up): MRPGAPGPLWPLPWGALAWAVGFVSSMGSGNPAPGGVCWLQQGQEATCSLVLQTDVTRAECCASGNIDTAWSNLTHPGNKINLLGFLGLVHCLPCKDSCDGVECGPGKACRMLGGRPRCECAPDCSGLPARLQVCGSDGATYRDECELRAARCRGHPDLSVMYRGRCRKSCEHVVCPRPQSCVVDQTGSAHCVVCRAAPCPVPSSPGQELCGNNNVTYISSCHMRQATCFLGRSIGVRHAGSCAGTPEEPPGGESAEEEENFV
protocolNotes: FSTL3 binders on small-molecule microarrays, primary screen, biochemical, small-molecule microarray, 635 nm fluorescence (AID 1105);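 further: score merges emission near 667 nm and signal to noise per printed spot across three slides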
testConditions: FSTL3 binding, higher = more signal
readoutType: composite z-score
Respond with the number and no other words.

Some compounds with known composite z-score results, for comparison:
{"compound": "CCN1C(=O)[C@H]2[C@H]3[C@H](O)[C@H](O)CC(=NO[C@@H](C)c4cc(-c5c(C)cc(C)cc5C)no4)[C@@H]3CC[C@H]2C1=O", "composite z-score": 1.18}
{"compound": "CO[C@@H]1COC(=O)[C@H](COCc2ccccc2)NC(=O)CC=C[C@@H](C)[C@H](OC)COC(=O)[C@@H](C)NC(=O)CC=C[C@H]1C", "composite z-score": 0.754}

composite z-score value, target or system Follistatin-related protein 3 (Homo sapiens) (UniProt O95633), for C[C@@H]1CC[C@H]2C(=O)OC(Cc3ccccc3)CN2[C@H]1c1ccc(Br)cc1 (some centres undefined) : 0.141

COC(=O)CC=C[C@@H](C)[C@@H](C=NOC[C@@H](O)COCc1ccco1)NS(=O)(=O)c1ccc(C)cc1 on Follistatin-related protein 3 (Homo sapiens) (UniProt O95633) gives composite z-score = 0.914

----------
Here the recorded composite z-score is given for each entry.
testSystem: Dihydroorotate dehydrogenase (quinone), mitochondrial (Plasmodium falciparum (isolate 3D7))
protocolNotes: PfDHODH enzyme inhibitors, primary screen, biochemical, C-terminal His tag, absorbance 600 nm (AID 1175);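 further: recombinant parasite enzyme with a five histidine tag at its C terminus; test concentration not given here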
testConditions: DCIP absorbance 600 nm, higher = more signal, called active from +8 up or from −8 down
Answer using only a numeral; do not append any unit.

Some molecules with known composite z-score results, for comparison:
{"structure": "CC(CCC(=O)OC[C@H]1O[C@H](C#Cc2ccccc2)C=C[C@@H]1Oc1ccc(C)cc1)=NOC[C@@H](C)[C@H](OCc1ccccc1)C(C)C", "composite z-score": 0.615}
{"structure": "CON=C1c2cc(OC)ccc2O[C@H](c2cccc(OC)c2)[C@H]1O", "composite z-score": -0.469}
{"structure": "O=C1C2=CC[C@H]3C(=O)N(C4CCCCC4)C(=O)[C@H]3[C@H]2[C@H](O)[C@@H]2O[C@H]12", "composite z-score": -3.96}

Please look at the following molecule next.
Entry O=C1[C@H]2[C@H]3[C@H](O)[C@H](O)CC(=NOC[C@@H](O)COCc4ccco4)[C@@H]3CC[C@H]2C(=O)N1Cc1ccc2c(c1)OCO2 ; composite z-score = -0.395

----------
protocolNotes: E. coli acrAB mutant growth effects, primary screen, E. coli filamentation inducers, strain DRC39, OD650, 48 h (AID 1179);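 further: screen aims at cell division blockers that make cells filament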
testConditions: E. coli DRC39 delta-acrAB growth, higher = more signal, called active from +8 up or from −8 down
compounds and their reported z-score
Answer using only a numeral; do not append any unit.

{"compound": "CCOC(=O)[C@H](Cc1ccccc1)NC(=O)CCC1CC(OC(=O)NCc2ccc3c(c2)OCO3)CC2(CCCC(COC(=O)NCCc3ccc(Cl)cc3)O2)O1 (stereo partly drawn)", "z-score": -0.756}
{"compound": "C[C@@H]1CC[C@H]2C(=O)O[C@@H](COc3ccc(C(C)(C)C)cc3)CN2[C@H]1c1ccc(Br)cc1", "z-score": -0.423}
{"compound": "COc1ccc(O[C@H]2C=C[C@@H](C#Cc3ccccc3)O[C@@H]2CO)cc1", "z-score": 0.14}
{"compound": "Cc1ccc(C(C)C)n1C(=O)OC(C)(C)C", "z-score": -0.113}
{"compound": "Cc1cc2c(nc1C)CCCCN2CC(O)CN1CCCc2nc(-c3ccc(Br)cc3)ccc21 (stereo not drawn)", "z-score": 0.348}

Value of measured z-score for the entry COc1ccc(COC(=O)NN=C2C[C@@H](O)[C@@H](O)[C@@H]3[C@@H]4C(=O)N(c5cccc(Oc6ccccc6)c5)C(=O)[C@@H]4CC[C@H]23)cc1 : 0.751

Please fill in: z-score reported for COC(=O)[C@H](C)NC(=O)CCC1CC(OC(=O)NCc2cccc3ccccc23)CC2(CCCC(COC(=O)NCCCN3CCCC3=O)O2)O1 (stereo partly drawn) = -1.34

Memo: COC(=O)[C@H](C)NC(=O)CCC1CC(OC(=O)NCCc2ccc(F)cc2)CC2(CCCC(COC(=O)NCC3CCCCC3)O2)O1 (stereo partly drawn) , reported z-score: -0.741

----------
System: glycogen synthase kinase-3 (GSK3A per assay name; protocol says GSK3B)
protocolNotes: GSK3 binders on small-molecule microarrays, primary screen, biochemical, small-molecule microarray, 635 nm fluorescence, GSK3A (AID 1103); further: the record names both GSK3A and GSK3B
testConditions: small-molecule microarray binding, fluorescence 635 nm; higher = more signal
Overview of recorded composite z-score for various compounds
// print number alone

Completed entries (count: 6):
{"compound": "CO[C@H]1COC(=O)CCC[C@H](C)[C@@H](OC)COC(=O)CC=C[C@@H]1C", "readoutType": "composite z-score", "resultValue": 0.278}
{"compound": "C[C@@H](c1ccccc1)N1C(=O)[C@H]2[C@H]3[C@H](O)[C@H](O)CC(=NNC(=O)OCc4ccccc4)[C@@H]3CC[C@H]2C1=O", "readoutType": "composite z-score", "resultValue": 1.25}
{"compound": "CCOC(=O)[C@H](Cc1ccccc1)NC(=O)CCC1CC(OC(=O)NCc2ccc3c(c2)OCO3)CC2(CCCC(COC(=O)NCCCN3CCCC3=O)O2)O1 (stereo partly specified)", "readoutType": "composite z-score", "resultValue": 0.852}
{"compound": "CCOC(=O)[C@H](Cc1ccccc1)NC(=O)CCC1CC(OC(=O)NCCc2ccc(F)cc2)CC2(CCCC(COC(=O)NCCC(C)C)O2)O1 (stereo partly specified)", "readoutType": "composite z-score", "resultValue": 1.01}
{"compound": "CC(C)=NOC[C@@H](O)[C@H]1O[C@@H]2OC(C)(C)O[C@@H]2[C@H]1O", "readoutType": "composite z-score", "resultValue": 0.892}
{"compound": "O=C1[C@H]2[C@H]3[C@H](O)[C@H](O)CC(=NOC[C@@H](O)COCc4ccco4)[C@@H]3CC[C@H]2C(=O)N1Cc1ccccc1", "readoutType": "composite z-score", "resultValue": 1.34}

Entry CC(C)=NOC(C)CN1CCCCc2nc(C)c(C)cc21 (stereo unspecified) ; assay system glycogen synthase kinase-3 (GSK3A per assay name; protocol says GSK3B); composite z-score recorded at 0.0285

Given the compound CO[C@@H](C(C)C)[C@@H](C)C1OC(=O)CC1O (stereo partly specified) and test system glycogen synthase kinase-3 (GSK3A per assay name; protocol says GSK3B), the measured composite z-score is -0.051

The compound CO[C@H]1COC(=O)CC=C[C@@H](C)COC(=O)[C@H]2CCCN2C(=O)CC=C[C@H]1C , tested on glycogen synthase kinase-3 (GSK3A per assay name; protocol says GSK3B), showed composite z-score of 1.01

The reported glycogen synthase kinase-3 (GSK3A per assay name; protocol says GSK3B) composite z-score of C[C@@H](c1ccccc1)N1C(=O)[C@H]2[C@H]3[C@H](O)[C@H](O)CC(=NOCc4ccccc4)[C@@H]3CC[C@H]2C1=O is -0.187

Case CCOC(=O)[C@H](Cc1ccccc1)NC(=O)CCC1CC(OC(=O)NCc2cccc3ccccc23)CC2(CCCC(COC(=O)NCC3CCCCC3)O2)O1 (stereo partly specified) , glycogen synthase kinase-3 (GSK3A per assay name; protocol says GSK3B), composite z-score recorded as 0.805

Reported composite z-score (glycogen synthase kinase-3 (GSK3A per assay name; protocol says GSK3B)) for entry C=CC[C@@H]1C=C[C@H](ON=C(C)CCN2CCCCc3nc(C)c(C)cc32)[C@@H](CO)O1 is 1.29
